// reported IC50 per item
measured-target: Human Dopamine D2L receptor (Homo sapiens, UniProt P14416)
Construct: expressed in transfected cells; host or cells: CHO cells
Sequence (P14416 whole entry): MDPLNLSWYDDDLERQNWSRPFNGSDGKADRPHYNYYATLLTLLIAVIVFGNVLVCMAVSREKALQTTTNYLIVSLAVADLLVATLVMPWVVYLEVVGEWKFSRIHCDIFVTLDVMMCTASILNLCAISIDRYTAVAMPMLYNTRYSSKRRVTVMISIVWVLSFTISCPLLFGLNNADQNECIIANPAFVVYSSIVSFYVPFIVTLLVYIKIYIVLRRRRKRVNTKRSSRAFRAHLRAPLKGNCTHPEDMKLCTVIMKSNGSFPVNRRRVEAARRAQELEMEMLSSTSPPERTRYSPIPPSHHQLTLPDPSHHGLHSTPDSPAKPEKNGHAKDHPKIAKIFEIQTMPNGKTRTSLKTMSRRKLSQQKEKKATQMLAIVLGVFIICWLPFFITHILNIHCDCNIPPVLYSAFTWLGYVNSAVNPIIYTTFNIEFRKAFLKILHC
method-notes: Binding experiment for dopamine D2 receptor ([3H]Spiperone)
assay-context: D2L-transfected CHO cell membranes, read-out: pIC50 D2 (converted)

# compound, IC50
records = [
    ("COc1cc2c(cc1OCCOC(C)=O)OCC1C2=NOC1CN1CCC(c2c[nH]c3ccc(F)cc23)CC1 (racemic)", "158 nM"),
    ("COc1cc2c(cc1OC)C1=NOC(CN3CC=C(c4c[nH]c5ccc(N)cc45)CC3)C1CO2 (stereo not shown)", "1260 nM"),
    ("COc1cc2c(cc1OC)C1=NO[C@@H](CN3CCC(n4ccc5ccccc54)CC3)[C@@H]1CO2 (racemic)", "501 nM"),
    ("COc1ccc2[nH]cc(C3CCN(CC4ON=C5c6cc(OC)c(OC)cc6OCC54)CC3)c2c1 (racemic)", "> 1000 nM"),
]

* * *

// reported IC50 per item
measured-target: Human 5HT1A receptor (Homo sapiens, UniProt P08908)
Construct: expressed in transfected cells; host or cells: L929 cells (stably transfected)
Sequence (P08908 1-422): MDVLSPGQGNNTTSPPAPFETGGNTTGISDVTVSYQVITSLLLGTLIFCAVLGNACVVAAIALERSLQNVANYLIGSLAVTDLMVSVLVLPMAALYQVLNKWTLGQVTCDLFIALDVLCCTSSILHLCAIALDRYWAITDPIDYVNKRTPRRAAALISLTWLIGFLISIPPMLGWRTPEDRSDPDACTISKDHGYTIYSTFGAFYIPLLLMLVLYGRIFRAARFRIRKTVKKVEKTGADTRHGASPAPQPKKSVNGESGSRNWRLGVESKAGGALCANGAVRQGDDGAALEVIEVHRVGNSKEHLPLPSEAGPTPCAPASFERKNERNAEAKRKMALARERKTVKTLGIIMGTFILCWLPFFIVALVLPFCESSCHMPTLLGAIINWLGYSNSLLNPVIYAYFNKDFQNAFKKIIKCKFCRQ
method-notes: Binding experiment for 5-HT1A receptor ([3H]8OHDPAT)
assay-context: transfected L929 cell membranes, [3H]8OHDPAT; read-out: pIC50 5-HT1A (converted)
quantity-measured: IC50 (nM)

# compound, measured-target, reading-unit, test-result
rows = [
    ("COc1cc2c(cc1OC)C1=NOC(CN3CC=C(c4c[nH]c5ccc(N)cc45)CC3)C1CO2 (stereo not drawn)", "Human 5HT1A receptor (Homo sapiens, UniProt P08908)", "nM", 12.6),
    ("COc1cc2c(cc1OC)C1=NOC(CN3CC=C(c4c[nH]c5ccc(NC(C)=O)cc45)CC3)C1CO2 (racemic)", "Human 5HT1A receptor (Homo sapiens, UniProt P08908)", "nM", 3.16),
    ("COc1cc2c(cc1OC)C1=NOC(CN3CC=C(c4c[nH]c5ccc(O)cc45)CC3)C1CO2 (racemic)", "Human 5HT1A receptor (Homo sapiens, UniProt P08908)", "nM", 12.6),
]

* * *

measured-target: Human Dopamine D2L receptor (Homo sapiens, UniProt P14416)
Construct: expressed in transfected cells; host or cells: CHO cells
method-notes: Binding experiment for dopamine D2 receptor ([3H]Spiperone)
assay-context: D2L-transfected CHO cell membranes
// reported pIC50 D2 per item

# molecule, qual, pIC50 D2
data = [
    ("COc1cc2c(cc1OC)C1=NOC(CN3CCC(Cc4c[nH]c5ccc(F)cc45)CC3)C1CO2 (racemic)", "=", 6.3),
    ("COc1cc2c(cc1OC)C1=NOC(CN3CC=C(c4c[nH]c5ccc(C#N)cc45)CC3)C1CO2 (racemic)", "=", 6.1),
    ("COc1cc2c(cc1OC)C1=NOC(CN3CC=C(c4c[nH]c5ccc(F)cc45)CC3)C1CO2 (single isomer, unassigned) [Compound 12]", "=", 6.5),
    ("COc1cc2c(cc1OC)C1=NOC(CN3CCC(c4c[nH]c5c(F)cccc45)CC3)C1CO2 (racemic)", "=", 6.0),
    ("COc1cc2c(cc1OC)C1=NOC(CN3CC=C(c4c[nH]c5cccc(F)c45)CC3)C1CO2 (single isomer, unassigned) [Compound 13]", "=", 6.2),
    ("COc1cc2c(cc1OC)C1=NOC(CN3CC=C(c4c[nH]c5ccccc45)CC3)C1CO2 (single isomer, unassigned) [Compound 14]", "=", 6.8),
    ("COCC(=O)OCCOc1cc2c(cc1OC)C1=NOC(CN3CCC(c4c[nH]c5ccc(F)cc45)CC3)C1CO2 (racemic)", "=", 6.7),
    ("Fc1ccc2[nH]cc(C3=CCN(CC4ON=C5c6cc7c(cc6OCC54)OCCO7)CC3)c2c1 (single isomer, unassigned)", "=", 6.3),
    ("COc1cc2c(cc1OC)C1=NOC(CN3CC=C(c4c[nH]c5ccc(NC(=O)Nc6ccccc6)cc45)CC3)C1CO2 (racemic)", "<", 5),
    ("COc1cc2c(cc1OC)C1=NOC(CN3CCC(c4c[nH]c5ccc(F)cc45)CC3)C1CO2 (single isomer, unassigned) [Compound 11]", "=", 7.2),
    ("COc1cc2c(cc1OC)C1=NOC(CN3CCC(c4c[nH]c5ccc(F)cc45)CC3)C1CO2 (racemic) [Compound 2]", "=", 7.2),
    ("COc1cc2c(cc1OC)C1=NOC(CN3CCC(c4c[nH]c5ccc(N)cc45)CC3)C1CO2 (racemic)", "=", 6.2),
    ("COc1cc2c(cc1OC)C1=NOC(CN3CC=C(c4c[nH]c5ccc(Cl)cc45)CC3)C1CO2 (racemic)", "=", 6.6),
    ("COc1cc2c(cc1OC)C1=NOC(CN3CCC(c4c[nH]c5ccc(Cl)cc45)CC3)C1CO2 (racemic)", "=", 6.8),
    ("COCC(=O)Nc1ccc2[nH]cc(C3=CCN(CC4ON=C5c6cc(OC)c(OC)cc6OCC54)CC3)c2c1 (racemic)", "<", 5),
    ("CCNC(=O)OCCOc1cc2c(cc1OC)C1=NOC(CN3CCC(c4c[nH]c5ccc(F)cc45)CC3)C1CO2 (racemic)", "=", 6.8),
    ("COc1cc2c(cc1OC)C1=NOC(CNCCCc3c[nH]c4ccc(F)cc34)C1CO2 (single isomer, unassigned) [Compound 5]", "=", 6.6),
    ("COc1cc2c(cc1OC)C1=NOC(CN3CCC(c4c[nH]c5ccc(Br)cc45)CC3)C1CO2 (racemic)", "=", 6.7),
    ("COc1cc2c(cc1OC)C1=NOC(CN3CC=C(c4c[nH]c5ccc([N+](=O)[O-])cc45)CC3)C1CO2 (racemic)", "=", 6.1),
    ("COc1ccc2[nH]cc(C3=CCN(CC4ON=C5c6cc(OC)c(OC)cc6OCC54)CC3)c2c1 (racemic)", "<", 6),
    ("COc1cc2c(cc1OC)C1=NOC(CN3CC=C(c4c[nH]c5ccc(NS(C)(=O)=O)cc45)CC3)C1CO2.O=C(O)C(F)(F)F (racemic)", "=", 6.0),
]
